Target: LRRK2 (G2019S) (Homo sapiens, UniProt Q5S007, G2019S)
Sequence (Q5S007 970-2527 G2019S limits assumed): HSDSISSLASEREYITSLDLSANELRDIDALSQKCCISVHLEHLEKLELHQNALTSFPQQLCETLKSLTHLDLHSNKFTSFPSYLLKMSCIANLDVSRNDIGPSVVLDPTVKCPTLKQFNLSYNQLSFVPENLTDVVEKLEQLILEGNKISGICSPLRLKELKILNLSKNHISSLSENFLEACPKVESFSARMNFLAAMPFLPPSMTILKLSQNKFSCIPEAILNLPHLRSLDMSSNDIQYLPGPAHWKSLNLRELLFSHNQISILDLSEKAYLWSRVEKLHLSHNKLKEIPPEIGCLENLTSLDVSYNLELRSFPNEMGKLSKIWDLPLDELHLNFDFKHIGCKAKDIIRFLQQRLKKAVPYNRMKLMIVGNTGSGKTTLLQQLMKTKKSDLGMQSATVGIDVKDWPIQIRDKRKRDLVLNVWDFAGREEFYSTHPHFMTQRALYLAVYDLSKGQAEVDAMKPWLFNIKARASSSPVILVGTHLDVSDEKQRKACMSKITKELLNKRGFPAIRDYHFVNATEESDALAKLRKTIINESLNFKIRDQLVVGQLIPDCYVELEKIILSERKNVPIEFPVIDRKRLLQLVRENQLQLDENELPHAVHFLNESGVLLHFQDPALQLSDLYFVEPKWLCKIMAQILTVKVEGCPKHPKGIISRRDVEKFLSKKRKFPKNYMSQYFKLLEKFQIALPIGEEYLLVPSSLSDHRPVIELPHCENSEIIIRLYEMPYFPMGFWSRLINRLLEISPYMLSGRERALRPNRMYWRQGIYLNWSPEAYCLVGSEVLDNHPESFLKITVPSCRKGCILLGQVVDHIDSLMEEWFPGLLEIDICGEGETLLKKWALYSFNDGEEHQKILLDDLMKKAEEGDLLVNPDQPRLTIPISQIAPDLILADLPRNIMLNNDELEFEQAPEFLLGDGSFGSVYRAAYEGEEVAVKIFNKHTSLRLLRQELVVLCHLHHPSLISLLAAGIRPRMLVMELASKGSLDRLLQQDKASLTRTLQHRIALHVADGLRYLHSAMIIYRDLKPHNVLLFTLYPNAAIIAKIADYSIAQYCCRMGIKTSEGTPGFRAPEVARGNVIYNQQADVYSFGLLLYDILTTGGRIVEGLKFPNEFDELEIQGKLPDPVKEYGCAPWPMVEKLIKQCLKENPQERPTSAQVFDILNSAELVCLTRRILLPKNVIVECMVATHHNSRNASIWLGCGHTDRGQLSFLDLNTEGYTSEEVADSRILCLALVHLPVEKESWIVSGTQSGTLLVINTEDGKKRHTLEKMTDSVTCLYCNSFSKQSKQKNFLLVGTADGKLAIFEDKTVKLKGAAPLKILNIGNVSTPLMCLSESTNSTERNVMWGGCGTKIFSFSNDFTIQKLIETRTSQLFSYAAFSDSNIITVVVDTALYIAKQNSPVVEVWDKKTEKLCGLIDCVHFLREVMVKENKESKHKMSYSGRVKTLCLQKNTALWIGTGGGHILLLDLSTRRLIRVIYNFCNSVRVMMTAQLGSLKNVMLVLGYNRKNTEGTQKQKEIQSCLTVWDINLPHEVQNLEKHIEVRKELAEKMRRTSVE
Assay: LRRK2 G2019S enzyme inhibition, ADP-Glo kinase assay
pIC50: −log10 of the molar value. Structures can show the parent of a compound that is named as a salt.
Known pIC50 of a selection of compounds
recordedEndpoint: pIC50

                                    compound  observedresult
 0  CCNc1cc(Nc2ccc(C(=O)N3CCC(N4C[C@@H](C)O[C@@H](C)C4)CC3)c3c2OCC3)nc2[nH]cc(C(F)(F)F)c12          > 7.00
 1  COCCNc1cc(Nc2ccc(C(=O)N3CCC(N4CCOCC4)CC3)c3c2OCCO3)nc2[nH]cc(C(F)(F)F)c12          > 7.00
 2  CCCNc1cc(Nc2ccc(S(=O)(=O)N3CCOCC3)cc2OC)nc2[nH]cc(C#N)c12    6.00 to 6.52
 3  CNc1cc(Nc2ccc(S(=O)(=O)N3CCC(N4C[C@H]5C[C@@H]4CO5)CC3)cc2OC)nc2[nH]cc(C(F)(F)F)c12          > 7.00
 4  COCCNc1cc(Nc2ccc(C(=O)N3CCC(N4CCOCC4)CC3)c3c2OCCO3)nc2[nH]cc(C#N)c12          > 7.00
 5  COc1cc(S(=O)(=O)N2CCOCC2)ccc1Nc1cc(NC(C)C)c2c(Cl)c[nH]c2n1    6.00 to 6.52
 6  CCCNc1cc(Nc2ccc(S(C)(=O)=O)cc2OC)nc2[nH]cc(C#N)c12    6.52 to 7.00
 7  COc1cc(S(C)(=O)=O)ccc1Nc1cc(NC2CC2)c2c(C#N)c[nH]c2n1    6.52 to 7.00
 8  CCNc1cc(Nc2ccc(S(C)(=O)=O)cc2OC)nc2[nH]cc(C#N)c12    6.52 to 7.00
 9  O=C(c1ccc(Nc2cc(NC3CCCCC3)c3c(C(F)(F)F)c[nH]c3n2)c2c1OCCO2)N1CCOCC1    6.00 to 6.52
10  O=C(c1ccc(Nc2cc(NC3CC3)c3c(C(F)(F)F)c[nH]c3n2)c2c1CCO2)N1CCC(N2CCOCC2)CC1          > 7.00
11  CNc1cc(Nc2ccc(S(C)(=O)=O)cc2OC)nc2[nH]ccc12          > 7.00
12  C=CCNc1cc(Nc2ccc(C(=O)N3CCC(N4CCOCC4)CC3)c3c2OCC3)nc2[nH]cc(C(F)(F)F)c12          > 7.00
13  CCNc1cc(Nc2ccc(C(=O)N3CCOCC3)c3c2OCCO3)nc2[nH]ccc12 [Example 3, trifluoroacetate]    6.52 to 7.00
14  CC(C)CNc1cc(Nc2ccc(C(=O)N3CCOCC3)c3c2OCCO3)nc2[nH]ccc12          > 7.00

----------
pIC50: −log10 of the molar value. Structures can show the parent of a compound that is named as a salt.
Observed pIC50 values for UniProtKB Q13627 are listed in what follows.
recordedEndpoint: pIC50

                                   compound  observedresult
0  CCNc1cc(Nc2ccc(S(=O)(=O)N3CCOCC3)cc2OC)nc2[nH]ccc12 [Example 11, trifluoroacetate]    6.00 to 6.52
1  COc1cc(S(=O)(=O)N2CCOCC2)ccc1Nc1cc(NCC(C)C)c2cc[nH]c2n1    6.00 to 6.52
2  CCNc1cc(Nc2ccc(C(=O)N3CCN(C(C)C)CC3)c3c2OCC3)nc2[nH]cc(C(F)(F)F)c12          > 7.00
3  COc1cc(S(=O)(=O)N2CCC(N3CCOCC3)CC2)ccc1Nc1cc(NC2CC2)c2c(C(F)(F)F)c[nH]c2n1 [Example 188, trifluoroacetate]    6.00 to 6.52
4  CCNc1cc(Nc2ccc(C(=O)N3CCC(N4C[C@@H](C)O[C@@H](C)C4)CC3)c3c2OCC3)nc2[nH]cc(C(F)(F)F)c12          > 7.00
5  O=C(c1ccc(Nc2cc(NC3CC3)c3c(C(F)(F)F)c[nH]c3n2)c2c1CCO2)N1CCC(N2CCOCC2)CC1          > 7.00
6  CCNc1cc(Nc2ccc(C(=O)N3CCN(CCO)CC3)c3c2OCC3)nc2[nH]cc(C(F)(F)F)c12          > 7.00
